Recorded measurements of delta DSS (ΔDSS), one per entry
- Test system: UT-SCC-24A
- assay name: High throughput drug screening (CellTiter-Glo, DSS)
- Type: cell-based, human
- applied conditions: DSS irradiated (2 Gy) minus DSS non-irradiated, >5 synergy, <–5 antagonism

Reference set (5 entries):
compound: N.N.[Cl][Pt][Cl] [Cisplatin, cisplatin, reference compound]
delta DSS (ΔDSS): -0,9
--
compound: NCCCCCCN1C(=O)N(CCCCCCN)C(=O)C(CCCc2ccccc2)(CCCc2ccccc2)C1=O
delta DSS (ΔDSS): -0,2
--
compound: NCCCCN1C(=O)N(CCCCN)C(=O)C(CCCc2ccccc2)(CCCc2ccccc2)C1=O
delta DSS (ΔDSS): -1,1
--
compound: CN(C)CCCCN1C(=O)N(CCCCN(C)C)C(=O)C(CCCc2ccccc2)(CCCc2ccccc2)C1=O
delta DSS (ΔDSS): -0,6
--
compound: NCCN1C(=O)N(CCN)C(=O)C(CCCc2ccccc2)(CCCc2ccccc2)C1=O
delta DSS (ΔDSS): -0,7

Query block: Lab note: record delta DSS (ΔDSS) of CN(C)CCN1C(=O)N(CCN(C)C)C(=O)C(CCCc2ccccc2)(CCCc2ccccc2)C1=O tested on UT-SCC-24A.
Result block: -0,4

Query block: Lab note: record delta DSS (ΔDSS) of NCCCN1C(=O)N(CCCN)C(=O)C(CCCc2ccccc2)(CCCc2ccccc2)C1=O tested on UT-SCC-24A.
Result block: -1,8

Query block: Lab note: record delta DSS (ΔDSS) of NCCCCCN1C(=O)N(CCCCCN)C(=O)C(CCCc2ccccc2)(CCCc2ccccc2)C1=O tested on UT-SCC-24A.
Result block: -1,2

Query block: Lab note: record delta DSS (ΔDSS) of C[N+](C)(C)CCCCN1C(=O)N(CCCC[N+](C)(C)C)C(=O)C(CCCc2ccccc2)(CCCc2ccccc2)C1=O tested on UT-SCC-24A.
Result block: 0

Query block: Lab note: record delta DSS (ΔDSS) of CN(C)CCCN1C(=O)N(CCCN(C)C)C(=O)C(CCCc2ccccc2)(CCCc2ccccc2)C1=O tested on UT-SCC-24A.
Result block: -0,2

Query block: Lab note: record delta DSS (ΔDSS) of CNCCCCN1C(=O)N(CCCCNC)C(=O)C(CCCc2ccccc2)(CCCc2ccccc2)C1=O tested on UT-SCC-24A.
Result block: -1,6

###

- Test system: UT-SCC-42A
- assay name: High throughput drug screening (CellTiter-Glo, DSS)
- Assay type: cell-based, human
- applied conditions: DSS irradiated (2 Gy) minus DSS non-irradiated, >5 synergy, <–5 antagonism
- Experimental: The MPMs were screened against a panel of […] different cell lines (HSC-3, UT-SCC-8, UT-SCC-24A, UT-SCC-24B, UT-SCC-42A, UT-SCC-42B and NOF) at the High Throughput Biomedicine Unit (HTB) at the Institute for Molecular Medicine Finland (FIMM). […] Next, the plates were centrifuged for 5 min at 1,000 rpm before the luminescence signal was measured with the PHERAstar FS HT reader (BMG LABTECH GmbH, Ortenberg, Germany). […]
reported endpoint: delta DSS (ΔDSS)

compound: CN(C)CCCCN1C(=O)N(CCCCN(C)C)C(=O)C(CCCc2ccccc2)(CCCc2ccccc2)C1=O
delta DSS (ΔDSS): 0,4

Query block: Provide measured delta DSS (ΔDSS) value, entry: NCCCCCN1C(=O)N(CCCCCN)C(=O)C(CCCc2ccccc2)(CCCc2ccccc2)C1=O
Result block: -0,8

Query block: Provide measured delta DSS (ΔDSS) value, entry: C[N+](C)(C)CCCCN1C(=O)N(CCCC[N+](C)(C)C)C(=O)C(CCCc2ccccc2)(CCCc2ccccc2)C1=O
Result block: 0
